target.entity: proteasome in bovine aortic endothelial (BAE) cells (bovine)
protocol.text: cell-based or functional assay
Primed or numbered codes have the meaning given here. [ ]: non-standard residue; d: D form. α′‑methyl‑α′,β′‑epoxide = C-terminal α′-methyl-α′,β′-epoxyketone; Nle = CCCC[C@H](N)C(=O)O
property.label: IC50, inhibition of BAE cell proliferation (nM)
Field: numeric (nM). Do not append units.

Consider the reported IC50, inhibition of BAE cell proliferation for these binders:
Req: What value of IC50, inhibition of BAE cell proliferation has been recorded for this entry: Ac-[Nle]PFL-{α′‑methyl‑α′,β′‑epoxide} [Ac-NorLPFL-Ex]
Resp: 53000

Req: Field entry: pyrazinecarbonyl-Pro-Phe-Leu-{α′,β′‑epoxide with α′‑methyl (epoxyketone)} (also: C-terminal Leu as α′,β′-epoxyketone (epoxide) with α′-methyl substituent) [Pyrazinecarbonyl-PFL-Ex]
Resp: 400

Req: Cool, now {N‑dimethylaminobenzoyl}-Pro-Phe-Leu-{α′,β′‑epoxide with α′‑methyl (epoxyketone)} (also: C-terminal Leu as α′,β′-epoxyketone (epoxide) with α′-methyl substituent) [N-dimethylaminobenzoyl-PFL-EX]
Resp: 400

Req: Could you do the same for Ac-GPFL-{α′‑methyl‑α′,β′‑epoxide} [Ac-GPFL-Ex] , please?
Resp: 58000

---
Req: Look at this binder and give its reported IC50, inhibition of BAE cell proliferation. isooctanoyl-Pro-Phe-Leu-{α′,β′‑epoxide with α′‑methyl (epoxyketone)} (also: C-terminal Leu as α′,β′-epoxyketone (epoxide) with α′-methyl substituent) [Isooctanioc-PFL-Ex]
Resp: 600
